src = paper PMC8152971

- Protocol summary: Partition coefficient (K upper/lower) in biphasic CCC solvent systems
- Format: physicochemical
- Condition label: EtOAc/n-BuOH/H2O, 2:3:5; 30 mM ammonia
- Procedure: The solvent system was screened via HPLC and evaluated according to the partition coefficient (K value) of the target compounds on the principle introduced by Ito [32]. Briefly, four solvent systems comprising EtOAc, n-BuOH, […] solution to 29 mM, and then the corresponding K values of the target compounds under acidic (Kacid) or basic (Kbase) conditions were determined, as previously described: each acidified or basified solvent system was partitioned to upper layer and lower layer. […]
Here the recorded K(upper/lower) Value is given for each entry.
Reported endpoint: K(upper/lower) Value

• O=C(/C=C/c1ccc(O)c(O)c1)O[C@@H]1C[C@@](O)(C(=O)O)C[C@@H](O)[C@@H]1O = 0.01
• O=C(/C=C/c1ccc(O)c(O)c1)O[C@H]1[C@H](O)C[C@](O)(C(=O)O)C[C@H]1OC(=O)/C=C/c1ccc(O)c(O)c1 = 0.04
• O=C(/C=C/c1ccc(O)c(O)c1)O[C@@H]1C[C@](O)(C(=O)O)C[C@@H](OC(=O)/C=C/c2ccc(O)c(O)c2)[C@H]1OC(=O)/C=C/c1ccc(O)c(O)c1 = 0.40

* * *

- Protocol summary: Hypochlorous acid (HOCl) scavenging assay
- Condition label: 6.25 µM
Reported endpoint: HOCl Scavenging Activity Inhibition (%)

* O=C(/C=C/c1ccc(O)c(O)c1)O[C@H]1[C@H](O)C[C@](O)(C(=O)O)C[C@H]1OC(=O)/C=C/c1ccc(O)c(O)c1 | 50.28
* O=C(/C=C/c1ccc(O)c(O)c1)O[C@@H]1[C@H](O)C[C@@](O)(C(=O)O)C[C@H]1OC(=O)/C=C/c1ccc(O)c(O)c1 | 51.23
* O=C(/C=C/c1ccc(O)c(O)c1)O[C@@H]1C[C@](O)(C(=O)O)C[C@@H](OC(=O)/C=C/c2ccc(O)c(O)c2)[C@H]1O | 56.13
* O=C(/C=C/c1ccc(O)c(O)c1)O[C@@H]1C[C@](O)(C(=O)O)C[C@@H](OC(=O)/C=C/c2ccc(O)c(O)c2)[C@H]1OC(=O)/C=C/c1ccc(O)c(O)c1 | 35.39

* * *

- Protocol summary: Partition coefficient (K upper/lower) in biphasic CCC solvent systems
- Format: physicochemical
- Condition label: EtOAc/H2O, 1:1; 208 mM formic acid
- Description: The solvent system was screened via HPLC and evaluated according to the partition coefficient (K value) of the target compounds on the principle introduced by Ito [32]. Briefly, four solvent systems comprising EtOAc, n-BuOH, […] solution to 29 mM, and then the corresponding K values of the target compounds under acidic (Kacid) or basic (Kbase) conditions were determined, as previously described: each acidified or basified solvent system was partitioned to upper layer and lower layer. […]
// NB: equality with 0.9 counts as class 0; only K(upper/lower) Value strictly below is class 1

• O=C(/C=C/c1ccc(O)c(O)c1)O[C@@H]1C[C@](O)(C(=O)O)C[C@@H](O)[C@H]1O = class 0
• O=C(/C=C/c1ccc(O)c(O)c1)O[C@@H]1C[C@](O)(C(=O)O)C[C@@H](OC(=O)/C=C/c2ccc(O)c(O)c2)[C@H]1O = class 0
• O=C(/C=C/c1ccc(O)c(O)c1)O[C@H]1[C@H](O)C[C@](O)(C(=O)O)C[C@H]1OC(=O)/C=C/c1ccc(O)c(O)c1 = class 0
• O=C(/C=C/c1ccc(O)c(O)c1)O[C@@H]1C[C@](O)(C(=O)O)C[C@@H](OC(=O)/C=C/c2ccc(O)c(O)c2)[C@H]1OC(=O)/C=C/c1ccc(O)c(O)c1 = class 0
• O=C(/C=C/c1ccc(O)c(O)c1)O[C@@H]1C[C@@](O)(C(=O)O)C[C@@H](O)[C@@H]1O = class 1
• O=C(/C=C/c1ccc(O)c(O)c1)O[C@@H]1[C@H](O)C[C@@](O)(C(=O)O)C[C@H]1OC(=O)/C=C/c1ccc(O)c(O)c1 = class 0

* * *

- Target or test system: rat lens AR homogenate (aldose reductase) (Rattus norvegicus)
- Construct: the lenses were removed from the eyes, ground in a mortar; from tissue; host or cells: lens of Sprague–Dawley rats
- Protocol summary: AR inhibition assay
- Format: biochemical, Sprague–Dawley rats
- Condition label: AR Inhibitory Activity IC50, rat lens AR
- Experimental: The eyes of 10-week Sprague–Dawley rats (250–280 g) were removed and frozen at −70 °C before use. […] The AR inhibitory activities of the extract and the separated compounds were determined as described previously. […] Next, the reaction was initiated by adding 20 µL of the substrate (DL-glyceraldehyde dimmer, 25 mM in 0.1 M PBS of pH 7.0), and the values were further measured for 6 min at 340 nm (OD340) using an Epoch microplate spectrophotometer (BioTek Instruments, Winooski, VT, USA). […]
pIC50: −log10 of the molar value.
Reported endpoint: pIC50

- C[C@@H]1O[C@@H](Oc2c(-c3ccc(O)c(O)c3)oc3cc(O)cc(O)c3c2=O)[C@H](O)[C@H](O)[C@H]1O [Quercitrin, quercitrin, reference compound]: 6.99

* * *

Here the recorded K(upper/lower) Value is given for each entry.
- Protocol summary: Partition coefficient (K upper/lower) in biphasic CCC solvent systems
- Assay type: physicochemical
- Condition label: EtOAc/n-BuOH/H2O, 2:3:5; 30 mM ammonia
Reported endpoint: K(upper/lower) Value

- O=C(/C=C/c1ccc(O)c(O)c1)O[C@@H]1C[C@](O)(C(=O)O)C[C@@H](OC(=O)/C=C/c2ccc(O)c(O)c2)[C@H]1O: 0.12
- O=C(/C=C/c1ccc(O)c(O)c1)O[C@@H]1[C@H](O)C[C@@](O)(C(=O)O)C[C@H]1OC(=O)/C=C/c1ccc(O)c(O)c1: 0.13
- O=C(/C=C/c1ccc(O)c(O)c1)O[C@@H]1C[C@](O)(C(=O)O)C[C@@H](O)[C@H]1O: 0.01

* * *

- Protocol summary: Partition coefficient (K upper/lower) in biphasic CCC solvent systems
- Assay type: physicochemical
- Condition label: EtOAc/n-BuOH/H2O, 4:1:5; 208 mM formic acid
Here the recorded K(upper/lower) Value is given for each entry.
Reported endpoint: K(upper/lower) Value

- O=C(/C=C/c1ccc(O)c(O)c1)O[C@@H]1[C@H](O)C[C@@](O)(C(=O)O)C[C@H]1OC(=O)/C=C/c1ccc(O)c(O)c1: 22.17
- O=C(/C=C/c1ccc(O)c(O)c1)O[C@H]1[C@H](O)C[C@](O)(C(=O)O)C[C@H]1OC(=O)/C=C/c1ccc(O)c(O)c1: 4.86
- O=C(/C=C/c1ccc(O)c(O)c1)O[C@@H]1C[C@](O)(C(=O)O)C[C@@H](OC(=O)/C=C/c2ccc(O)c(O)c2)[C@H]1O: 14.23
- O=C(/C=C/c1ccc(O)c(O)c1)O[C@@H]1C[C@](O)(C(=O)O)C[C@@H](O)[C@H]1O: 2.43
- O=C(/C=C/c1ccc(O)c(O)c1)O[C@@H]1C[C@@](O)(C(=O)O)C[C@@H](O)[C@@H]1O: 1.36
- O=C(/C=C/c1ccc(O)c(O)c1)O[C@@H]1C[C@](O)(C(=O)O)C[C@@H](OC(=O)/C=C/c2ccc(O)c(O)c2)[C@H]1OC(=O)/C=C/c1ccc(O)c(O)c1: 27.56

* * *

- Protocol summary: Partition coefficient (K upper/lower) in biphasic CCC solvent systems
- Type: physicochemical
- Condition label: EtOAc/n-BuOH/H2O, 3:2:5; 208 mM formic acid
- Experimental: The solvent system was screened via HPLC and evaluated according to the partition coefficient (K value) of the target compounds on the principle introduced by Ito [32]. Briefly, four solvent systems comprising EtOAc, n-BuOH, […] solution to 29 mM, and then the corresponding K values of the target compounds under acidic (Kacid) or basic (Kbase) conditions were determined, as previously described: each acidified or basified solvent system was partitioned to upper layer and lower layer. […]
Here the recorded K(upper/lower) Value is given for each entry.
Reported endpoint: K(upper/lower) Value

• O=C(/C=C/c1ccc(O)c(O)c1)O[C@@H]1C[C@](O)(C(=O)O)C[C@@H](O)[C@H]1O = 5.48
• O=C(/C=C/c1ccc(O)c(O)c1)O[C@@H]1[C@H](O)C[C@@](O)(C(=O)O)C[C@H]1OC(=O)/C=C/c1ccc(O)c(O)c1 = 41.13
• O=C(/C=C/c1ccc(O)c(O)c1)O[C@H]1[C@H](O)C[C@](O)(C(=O)O)C[C@H]1OC(=O)/C=C/c1ccc(O)c(O)c1 = 16.14
• O=C(/C=C/c1ccc(O)c(O)c1)O[C@@H]1C[C@](O)(C(=O)O)C[C@@H](OC(=O)/C=C/c2ccc(O)c(O)c2)[C@H]1O = 35.91
• O=C(/C=C/c1ccc(O)c(O)c1)O[C@@H]1C[C@](O)(C(=O)O)C[C@@H](OC(=O)/C=C/c2ccc(O)c(O)c2)[C@H]1OC(=O)/C=C/c1ccc(O)c(O)c1 = 26.44
• O=C(/C=C/c1ccc(O)c(O)c1)O[C@@H]1C[C@@](O)(C(=O)O)C[C@@H](O)[C@@H]1O = 2.03
